Measurement Target: Factor X (FX), P00742
Sequence (P00742 whole entry, looked up): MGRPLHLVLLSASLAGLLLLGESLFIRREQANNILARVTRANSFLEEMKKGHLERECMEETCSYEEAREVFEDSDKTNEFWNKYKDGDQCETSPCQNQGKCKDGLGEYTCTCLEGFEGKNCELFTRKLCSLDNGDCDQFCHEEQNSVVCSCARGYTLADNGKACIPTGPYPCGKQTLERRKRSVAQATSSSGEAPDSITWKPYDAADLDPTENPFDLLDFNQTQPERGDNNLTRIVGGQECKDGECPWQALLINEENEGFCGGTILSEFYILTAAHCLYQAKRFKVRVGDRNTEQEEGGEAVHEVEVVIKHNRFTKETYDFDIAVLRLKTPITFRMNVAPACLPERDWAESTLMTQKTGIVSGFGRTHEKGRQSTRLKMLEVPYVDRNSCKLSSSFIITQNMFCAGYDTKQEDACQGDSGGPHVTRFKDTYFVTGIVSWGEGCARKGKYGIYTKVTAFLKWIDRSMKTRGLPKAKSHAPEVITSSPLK

{"Protein": "FIXa variant D203N/F205T/R338A (protein) chain 1: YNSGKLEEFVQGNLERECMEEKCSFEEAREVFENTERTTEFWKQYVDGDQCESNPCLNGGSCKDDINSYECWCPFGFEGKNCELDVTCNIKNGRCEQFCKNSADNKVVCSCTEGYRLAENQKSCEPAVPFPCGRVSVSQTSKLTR chain 2: VVGGEDAKPGQFPWQVVLNGKVNATCGGSIVNEKWIVTAAHCVETGVKITVVAGEHNIEETEHTEQKRNVIRIIPHHNYNAAINKYNHDIALLELDEPLVLNSYVTPICIADKEYTNIFLKFGSGYVSGWGRVFHKGRSALVLQYLRVPLVDRATCLASTKFTIYNNMFCAGFHEGGRDSCQGDSGGPHVTEVEGTSFLTGIISWGEECAMKGKYGIYTKVSRYVNWIKEKTKLT", "kcat/KM / M⁻¹ s⁻¹": "6.2e+07"}
